Measured Pigweed, Palmer plant response rating accompanies every entry in the list below.
# System: palmer (palmer amaranth, palmer pigweed, Amaranthus palmeri)
# protocol details: Test A preemergence soil spray, visual injury rating 0-100
# Type: in vivo
# condition info: 16 g ai/ha, 0 to 100 scale, 10 days
quantity name: Pigweed, Palmer plant response rating

| compound | assayed target | quantity name | recorded result |
| --- | --- | --- | --- |
| COC(=O)COC(=O)C1=CCC(NC(=O)C2(C)CN(c3cc(F)cc(F)c3)C(=O)O2)C1 (stereo not shown) | palmer (palmer amaranth, palmer pigweed, Amaranthus palmeri) | Pigweed, Palmer plant response rating | 0 |
| COC(=O)COC(=O)C1=CCC(NC(=O)C2(C)CN(c3cc(Cl)cc(Cl)c3)C(=O)O2)C1 (stereo not shown) | palmer (palmer amaranth, palmer pigweed, Amaranthus palmeri) | Pigweed, Palmer plant response rating | 80 |
| CC1(C(=O)NC2CC=C(C(=O)OCC(F)F)C2)CN(c2cc(F)cc(F)c2)C(=O)O1 (stereo not shown) [Compound 151] | palmer (palmer amaranth, palmer pigweed, Amaranthus palmeri) | Pigweed, Palmer plant response rating | 0 |
| C=CC1(C(=O)NC2CC(C(=O)OC)C2)CN(c2cc(F)cc(F)c2)C(=O)O1 (stereo not shown) [Compound 172] | palmer (palmer amaranth, palmer pigweed, Amaranthus palmeri) | Pigweed, Palmer plant response rating | 10 |

* * *

# System: horseweed (Erigeron canadensis)
# protocol details: Test A postemergence application, visual injury rating 0-100
# Assay type: in vivo
# condition info: Postemergence, 16 g ai/ha, greenhouse 10 days; 0 no effect, 100 complete control
quantity name: Horseweed plant response rating (0 to 100 scale)

| compound | assayed target | recorded result |
| --- | --- | --- |
| COC(=O)C1C=CC(NC(=O)C2(C)CN(c3cc(C)cc(C)c3)C(=O)O2)C1 (centres unmarked) | horseweed (Erigeron canadensis) | 10 |
| CCOC(=O)C1CC(NC(=O)C2(C)CN(c3cc(F)cc(F)c3)C(=O)O2)C1 (centres unmarked) | horseweed (Erigeron canadensis) | 0 |
| CC1(C(=O)NC2CC(C(=O)OCC(F)(F)F)C2)CN(c2cc(F)cc(F)c2)C(=O)O1 (centres unmarked) | horseweed (Erigeron canadensis) | 0 |
| CSCCOC(=O)C1=CCC(NC(=O)C2(C)CN(c3cc(F)cc(Cl)c3)C(=O)O2)C1 (centres unmarked) | horseweed (Erigeron canadensis) | 70 |
| CC(C)COC(=O)C1=CCC(NC(=O)C2(C)CN(c3cc(Cl)cc(Cl)c3)C(=O)O2)C1 (centres unmarked) | horseweed (Erigeron canadensis) | 0 |
| CC(C)OC(=O)C1=CCC(NC(=O)C2(C)CN(c3cc(Cl)cc(Cl)c3)C(=O)O2)C1 (centres unmarked) | horseweed (Erigeron canadensis) | 0 |
| CC1(C(=O)NC2CC=C(C(=O)OCC(F)F)C2)CN(c2cc(Cl)cc(Cl)c2)C(=O)O1 (centres unmarked) | horseweed (Erigeron canadensis) | 70 |
| CC1(C(=O)NC2C=CC(C(=O)O)C2)CN(c2cc(Cl)c(F)c(Cl)c2)C(=O)O1 (centres unmarked) | horseweed (Erigeron canadensis) | 0 |
| COC(=O)C1CC(NC(=O)C2(C)CN(c3cc(F)cc(F)c3)C(=O)O2)C1 (centres unmarked) | horseweed (Erigeron canadensis) | 0 |
| CC1(C(=O)NC2CC=C(C(=O)NS(=O)(=O)C(C)(C)C)C2)CN(c2cc(F)cc(F)c2)C(=O)O1 (racemic) | horseweed (Erigeron canadensis) | 10 |
| CC1(C(=O)NC2CC=C(C(=O)O)C2)CN(c2cc(Cl)cc(Cl)c2)C(=O)O1 (centres unmarked) [Compound 158] | horseweed (Erigeron canadensis) | 30 |
| C=CC1(C(=O)NC2C=CC(C(=O)OC)C2)CN(c2cc(F)cc(F)c2)C(=O)O1 (single isomer, unassigned) | horseweed (Erigeron canadensis) | 80 |
| COC(=O)C1C=CC(NC(=O)C2(C)CN(c3cc(F)cc(F)c3)C(=O)O2)C1 (centres unmarked) | horseweed (Erigeron canadensis) | 20 |
| CC(C)COC(=O)C1=CCC(NC(=O)C2(C)CN(c3cc(F)cc(Cl)c3)C(=O)O2)C1 (centres unmarked) | horseweed (Erigeron canadensis) | 0 |
| CC1(C(=O)NC2CC=C(C(=O)O)C2)CN(c2cc(Cl)cc(Cl)c2)C(=O)O1 (centres unmarked) [Compound 157] | horseweed (Erigeron canadensis) | 0 |
| CCOC(=O)C1=CCC(NC(=O)C2(C)CN(c3cc(Cl)cc(Cl)c3)C(=O)O2)C1 (centres unmarked) [Compound 113] | horseweed (Erigeron canadensis) | 0 |
| CC1(C(=O)NC2CC=C(C(=O)O)C2)CN(c2cc(F)cc(Cl)c2)C(=O)O1 (centres unmarked) | horseweed (Erigeron canadensis) | 0 |
| CCOC(=O)C1=CCC(NC(=O)C2(C)CN(c3cc(F)cc(Cl)c3)C(=O)O2)C1 (centres unmarked) | horseweed (Erigeron canadensis) | 0 |
| COC(=O)C1C=CC(NC(=O)C2(C)CN(c3cccc(OC(F)(F)F)c3)C(=O)O2)C1 (mixture of isomers) | horseweed (Erigeron canadensis) | 10 |
| CC1(C(=O)NC2CC=C(C(=O)OCC(F)(F)F)C2)CN(c2cc(F)cc(Cl)c2)C(=O)O1 (centres unmarked) | horseweed (Erigeron canadensis) | 0 |
| CC(C)COC(=O)C1=CCC(NC(=O)C2(C)CN(c3cc(F)cc(F)c3)C(=O)O2)C1 (centres unmarked) | horseweed (Erigeron canadensis) | 0 |
| CCOC(=O)C1=CCC(NC(=O)C2(C)CN(c3cc(Cl)cc(Cl)c3)C(=O)O2)C1 (centres unmarked) [Compound 114] | horseweed (Erigeron canadensis) | 20 |
| CC(C)OC(=O)C1=CCC(NC(=O)C2(C)CN(c3cc(F)cc(F)c3)C(=O)O2)C1 (centres unmarked) | horseweed (Erigeron canadensis) | 0 |

* * *

# Test system: ragweed (common ragweed, Ambrosia artemisiifolia)
# protocol details: Test A postemergence application, visual injury rating 0-100
# Format: in vivo
# condition info: 62 g ai/ha, postemergence, 10 days, 0 = no effect, 100 = complete control
# Description: […]
Param threshold (30) applies to Ragweed plant response rating (0-100); output satisfied when value >= threshold, not satisfied when value < threshold.

| compound | assayed target | answer label |
| --- | --- | --- |
| CC(C)OC(=O)C1=CCC(NC(=O)C2(C)CN(c3cc(F)cc(F)c3)C(=O)O2)C1 (stereo not shown) [Compound 99] | ragweed (common ragweed, Ambrosia artemisiifolia) | not satisfied |
| CC1(C(=O)NC2C=CC(C(=O)O)C2)CN(c2cc(Cl)c(F)c(Cl)c2)C(=O)O1 (stereo not shown) | ragweed (common ragweed, Ambrosia artemisiifolia) | not satisfied |
| CC1(C(=O)NC2CC=C(C(=O)NS(=O)(=O)C(C)(C)C)C2)CN(c2cc(F)cc(F)c2)C(=O)O1 (racemic) | ragweed (common ragweed, Ambrosia artemisiifolia) | not satisfied |
| CC1(C(=O)NC2CC=C(C(=O)OCC(F)F)C2)CN(c2cc(Cl)cc(Cl)c2)C(=O)O1 (stereo not shown) [Compound 154] | ragweed (common ragweed, Ambrosia artemisiifolia) | satisfied |
| COC(=O)C1C=CC(NC(=O)C2(C(F)(F)F)CN(c3cc(F)c(F)c(F)c3)C(=O)O2)C1 (mixture of isomers) | ragweed (common ragweed, Ambrosia artemisiifolia) | satisfied |
| CC1(C(=O)NC2CC=C(C(=O)OCC(F)F)C2)CN(c2cc(Cl)cc(Cl)c2)C(=O)O1 (stereo not shown) [Compound 153] | ragweed (common ragweed, Ambrosia artemisiifolia) | not satisfied |

* * *

# System: ryegrass, Italian (italian ryegrass, Lolium multiflorum)
# protocol details: Test A postemergence application, visual injury rating 0-100
# Type: in vivo
# condition info: Postemergence, 16 g ai/ha, greenhouse 10 days; 0 no effect, 100 complete control
Measured Ryegrass, Italian plant response rating (0 to 100 scale) accompanies every entry in the list below.
quantity name: Ryegrass, Italian plant response rating (0 to 100 scale)

| compound | assayed target | recorded result |
| --- | --- | --- |
| COC(=O)COC(=O)C1=CCC(NC(=O)C2(C)CN(c3cc(Cl)cc(Cl)c3)C(=O)O2)C1 (stereo not shown) | ryegrass, Italian (italian ryegrass, Lolium multiflorum) | 0 |
| COC(=O)COC(=O)C1=CCC(NC(=O)C2(C)CN(c3cc(F)cc(F)c3)C(=O)O2)C1 (stereo not shown) [Compound 108] | ryegrass, Italian (italian ryegrass, Lolium multiflorum) | 60 |
| COC(=O)COC(=O)C1=CCC(NC(=O)C2(C)CN(c3cc(F)cc(F)c3)C(=O)O2)C1 (stereo not shown) [Compound 107] | ryegrass, Italian (italian ryegrass, Lolium multiflorum) | 0 |
| COC(=O)C1CC(NC(=O)C2(C)CN(c3cc(F)cc(F)c3)C(=O)O2)C1 (stereo not shown) | ryegrass, Italian (italian ryegrass, Lolium multiflorum) | 60 |
| CC1(C(=O)NC2C=CC(C(=O)O)C2)CN(c2cc(Cl)c(F)c(Cl)c2)C(=O)O1 (stereo not shown) | ryegrass, Italian (italian ryegrass, Lolium multiflorum) | 30 |
| CC1(C(=O)NC2C=CC(C(=O)O)C2)CN(c2cc(F)cc(F)c2)C(=O)O1 (stereo not shown) | ryegrass, Italian (italian ryegrass, Lolium multiflorum) | 10 |
| CC1(C(=O)NC2CC(C(=O)O)C2)CN(c2cc(F)cc(Cl)c2)C(=O)O1 (racemic) | ryegrass, Italian (italian ryegrass, Lolium multiflorum) | 30 |
| CC1(C(=O)NC2CC=C(C(=O)O)C2)CN(c2cc(Cl)cc(Cl)c2)C(=O)O1 (stereo not shown) | ryegrass, Italian (italian ryegrass, Lolium multiflorum) | 0 |
| CCOC(=O)C1=CCC(NC(=O)C2(C)CN(c3cc(F)cc(Cl)c3)C(=O)O2)C1 (stereo not shown) | ryegrass, Italian (italian ryegrass, Lolium multiflorum) | 60 |
| CCOC(=O)C1CC(NC(=O)C2(C)CN(c3cc(F)cc(F)c3)C(=O)O2)C1 (stereo not shown) | ryegrass, Italian (italian ryegrass, Lolium multiflorum) | 20 |
| COC(=O)C1=CCC(NC(=O)C2(C)CN(c3cc(Cl)cc(Cl)c3)C(=O)O2)C1 (stereo not shown) [Compound 148] | ryegrass, Italian (italian ryegrass, Lolium multiflorum) | 0 |
| CC1(C(=O)NC2CC=C(C(=O)OCC3CC3)C2)CN(c2cc(F)cc(Cl)c2)C(=O)O1 (stereo not shown) | ryegrass, Italian (italian ryegrass, Lolium multiflorum) | 60 |
| CCOC(=O)C1=CCC(NC(=O)C2(C)CN(c3cc(F)cc(F)c3)C(=O)O2)C1 (stereo not shown) [Compound 111] | ryegrass, Italian (italian ryegrass, Lolium multiflorum) | 0 |
| CC(C)COC(=O)C1=CCC(NC(=O)C2(C)CN(c3cc(Cl)cc(Cl)c3)C(=O)O2)C1 (stereo not shown) [Compound 155] | ryegrass, Italian (italian ryegrass, Lolium multiflorum) | 0 |
| CC(C)COC(=O)C1=CCC(NC(=O)C2(C)CN(c3cc(F)cc(F)c3)C(=O)O2)C1 (stereo not shown) | ryegrass, Italian (italian ryegrass, Lolium multiflorum) | 0 |
| C=CC1(C(=O)NC2C=CC(C(=O)OC)C2)CN(c2cc(F)cc(F)c2)C(=O)O1 (single isomer, unassigned) | ryegrass, Italian (italian ryegrass, Lolium multiflorum) | 80 |
